TESTED_SYSTEM: Sut1 (UniProt P53032)
Sequence: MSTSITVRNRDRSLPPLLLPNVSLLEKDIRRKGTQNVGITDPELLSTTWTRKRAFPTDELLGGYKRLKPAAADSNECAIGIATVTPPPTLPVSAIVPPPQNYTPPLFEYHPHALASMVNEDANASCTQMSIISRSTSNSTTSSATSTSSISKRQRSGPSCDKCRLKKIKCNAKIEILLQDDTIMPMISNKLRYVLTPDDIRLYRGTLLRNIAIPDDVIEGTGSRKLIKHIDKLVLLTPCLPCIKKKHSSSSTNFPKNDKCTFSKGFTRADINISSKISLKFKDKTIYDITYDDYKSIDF
ASSAY_COMMENT: PBM E-score (8-mer binding enrichment) (E-score (-0.5 to 0.5)); higher = stronger / more preferred TF binding
REPORTED_CONDITIONS: protein concentration: 200 nM; construct: GST-full length
Whole data set: some 33,000 sequences, median “E-score (-0.5 to 0.5)” near -0.017, cut for the highest 2% near 0.3. The sample holds the highest values, similar sequences and a random draw of the others, so the mix is not that of the screen.
We begin with a simple list: items and their reported PBM E-score.
I only need the number, thanks.

Observe how each entry below is paired with its result.
RESIDUE_SEQUENCE: AGGAGATA
PBM E-score: -0.155

RESIDUE_SEQUENCE: CGCATTCC
PBM E-score: -0.284

Input line: Any idea what PBM E-score came out for `ATCCCAAT` on Sut1 (UniProt P53032)?
Output line: 0.0805

Input line: Could you do the same for `CTATCTCC` , please?
Output line: 0.114

Input line: Moving on to `GCCGGACC`
Output line: 0.198

Input line: Consider next the sequence `GGACAGTA` in the same way.
Output line: 0.184

Input line: Follow-up item: `CGAGTGAG`
Output line: 0.0764

====

TESTED_SYSTEM: Sut1 (UniProt P53032)
Sequence: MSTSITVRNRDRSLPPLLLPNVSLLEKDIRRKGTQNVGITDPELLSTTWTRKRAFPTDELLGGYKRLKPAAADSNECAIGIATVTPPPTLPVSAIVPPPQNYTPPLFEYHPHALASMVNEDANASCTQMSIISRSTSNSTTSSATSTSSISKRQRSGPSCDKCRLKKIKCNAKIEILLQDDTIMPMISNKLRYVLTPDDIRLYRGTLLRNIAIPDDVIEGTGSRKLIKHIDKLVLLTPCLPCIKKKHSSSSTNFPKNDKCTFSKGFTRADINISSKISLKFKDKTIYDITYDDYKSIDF
ASSAY_COMMENT: PBM E-score (8-mer binding enrichment) (E-score (-0.5 to 0.5)); higher = stronger / more preferred TF binding
REPORTED_CONDITIONS: protein concentration: 200 nM; construct: GST-full length
In all, about 33,000 sequences were measured (“E-score (-0.5 to 0.5)”: median about -0.017, highest 2% from about 0.3 on). This excerpt belongs to a sample that is enriched for the highest values.
# PBM E-score annotations
Form rule: numeric answer, no unit written next to it.

RESIDUE_SEQUENCE: GAGTGAAC
TEST_RESULT: -0.111

RESIDUE_SEQUENCE: TCGGAAAA
TEST_RESULT: 0.372

RESIDUE_SEQUENCE: GTGCGGAA
TEST_RESULT: 0.0942

RESIDUE_SEQUENCE: TACAGCGA
TEST_RESULT: -0.145

Input line: Bench note: what PBM E-score did `AGAATGCA` show?
Output line: 0.0147

Input line: Then `ACTCACAG` ?
Output line: 0.0594
